Origin of measurements: ChEMBL document CHEMBL3425476

Target: Carbonic anhydrase 2 (Homo sapiens, UniProt P00918)
Experiment: Inhibition of human carbonic anhydrase 2 pre-incubated for 14 by stopped-flow CO2 hydration assay
valueKind: Ki

Measured Ki, `CSC(=S)NS(=O)(=O)c1ccccc1` : 5.29 nM

----------
Target: Carbonic anhydrase 2 (Homo sapiens)
Experiment: Inhibition of human carbonic anhydrase 2 pre-incubated for 6 hrs by stopped-flow CO2 hydration assay
valueKind: Ki (nM)
Just the number in nM, nothing appended.

Measured Ki, `CSC(=S)NS(=O)(=O)c1ccccc1` : 55.9

----------
Target: UniProtKB P00918
Assay: Inhibition of human carbonic anhydrase 2 pre-incubated for 1 hr by stopped-flow CO2 hydration assay
valueKind: pKi
Interpret pKi as the negative base-10 log of the concentration measured in mol/L.

Measured pKi, `CSC(=S)NS(=O)(=O)c1ccccc1` : 7.19

----------
Biological target: Carbonic anhydrase 2 (Homo sapiens, UniProt P00918)
Test: Inhibition of human carbonic anhydrase 2 pre-incubated for 10 hrs by stopped-flow CO2 hydration assay
valueKind: pKi
Interpret pKi as the negative base-10 log of the concentration measured in mol/L.

Measured pKi, `CSC(=S)NS(=O)(=O)c1ccccc1` : 7.51

----------
Biological target: Carbonic anhydrase 2 (Homo sapiens)
Assay: Inhibition of human carbonic anhydrase 2 pre-incubated for 8 hrs by stopped-flow CO2 hydration assay
valueKind: Ki (nM)
Just the number in nM, nothing appended.

Measured Ki, `CSC(=S)NS(=O)(=O)c1ccccc1` : 45

----------
Molecular target: Carbonic anhydrase 2 (Homo sapiens, UniProt P00918)
Assay: Inhibition of human carbonic anhydrase 2 pre-incubated for 2 hrs by stopped-flow CO2 hydration assay
valueKind: Ki
Just the number plus its unit, please.

Measured Ki, `CSC(=S)NS(=O)(=O)c1ccccc1` : 62.7 nM

----------
Molecular target: Carbonic anhydrase 2 (Homo sapiens, UniProt P00918)
Assay: Inhibition of human carbonic anhydrase 2 pre-incubated for 16 by stopped-flow CO2 hydration assay
valueKind: Ki (nM)
Just the number in nM, nothing appended.

Measured Ki, `CSC(=S)NS(=O)(=O)c1ccccc1` : 6.79
